test system: Pseudomonas aeruginosa ATCC 27853; test: ≥ marks a high value that may be exact or a test limit, other limits are often not marked, values filed in µg/mL are converted to µM
measurement-type: MIC (µM)

{"entry-smiles": "C[C@H](NC(=O)[C@H](CCCCN)NC(=O)[C@H](Cc1c[nH]c2ccccc12)NC(=O)CNC(=O)CNC(=O)[C@H](Cc1c[nH]c2ccccc12)NC(=O)[C@H](CCCCN)NC(=O)[C@H](CCCCN)NC(=O)CN)C(=O)N[C@@H](CCCCN)C(N)=O", "cmp": ">", "measurement": 218}
{"entry-smiles": "CC[C@H](C)[C@H](NC(=O)CN)C(=O)N[C@@H](CCSC)C(=O)N[C@@H](CO)C(=O)N[C@@H](CO)C(=O)N[C@@H](CC(C)C)C(=O)N[C@@H](CCSC)C(=O)N[C@@H](CCCCN)C(=O)N[C@@H](CCCCN)C(=O)N[C@@H](CC(C)C)C(=O)N[C@@H](C)C(=O)N[C@@H](C)C(=O)N[C@@H](Cc1cnc[nH]1)C(=O)N[C@H](C(=O)N[C@@H](C)C(=O)N[C@@H](CCCCN)C(N)=O)[C@@H](C)CC", "cmp": "=", "measurement": 20}
{"entry-smiles": "CC[C@H](C)[C@H](NC(=O)[C@H](C)NC(=O)[C@H](CCCCN)NC(=O)CNC(=O)[C@@H](NC(=O)[C@H](Cc1cnc[nH]1)NC(=O)CNC(=O)[C@H](CC(C)C)NC(=O)[C@H](CC(C)C)NC(=O)[C@@H](NC(=O)CNC(=O)[C@@H](NC(=O)[C@H](CC(C)C)NC(=O)CN)C(C)C)[C@@H](C)O)[C@@H](C)CC)C(=O)N[C@@H](CC(C)C)C(=O)NCC(=O)O", "cmp": ">", "measurement": 250}
{"entry-smiles": "CSCC[C@H](NC(=O)[C@H](CCCN=C(N)N)NC(=O)[C@H](Cc1c[nH]c2ccccc12)NC(=O)[C@H](CCC(N)=O)NC(=O)[C@H](Cc1c[nH]c2ccccc12)NC(=O)[C@H](CCCN=C(N)N)NC(=O)[C@H](CCCN=C(N)N)NC(=O)[C@H](C)NC(=O)[C@H](CCCCN)NC(=O)[C@@H](N)Cc1ccccc1)C(=O)N[C@@H](CCCCN)C(=O)N[C@@H](CCCCN)C(=O)N[C@@H](CC(C)C)C(=O)NCC(=O)N[C@@H](C)C(=O)O", "cmp": "=", "measurement": 48}
{"entry-smiles": "CC(C)C[C@H](NC(=O)[C@H](Cc1cnc[nH]1)NC(=O)[C@H](CCCN=C(N)N)NC(=O)[C@H](CC(C)C)NC(=O)[C@H](CC(C)C)NC(=O)[C@H](Cc1cnc[nH]1)NC(=O)[C@H](CCCN=C(N)N)NC(=O)[C@H](CC(C)C)NC(=O)[C@H](CC(C)C)NC(=O)[C@H](Cc1cnc[nH]1)NC(=O)[C@H](CCCN=C(N)N)NC(=O)[C@H](CC(C)C)NC(=O)[C@H](C)NC(=O)[C@H](CC(=O)O)NC(=O)[C@@H](N)CC(=O)O)C(=O)O", "cmp": "=", "measurement": 100}

----------
test system: Staphylococcus aureus KCTC 1621
Recorded MIC for the following compounds

{"entry-smiles": "CC[C@H](C)[C@H](N)C(=O)N[C@@H](CC(C)C)C(=O)NCC(=O)N[C@@H](CCCCN)C(=O)N[C@H](C(=O)N[C@@H](Cc1c[nH]c2ccccc12)C(=O)N[C@@H](CCC(=O)O)C(=O)NCC(=O)N[C@H](C(=O)N[C@@H](CCCCN)C(=O)N[C@@H](CO)C(=O)N[C@@H](CC(C)C)C(=O)N[C@@H](Cc1ccccc1)C(N)=O)[C@@H](C)CC)[C@@H](C)CC", "MIC": "2 µM"}
{"entry-smiles": "NC(=O)[C@H](CCCN=C(N)N)NC(=O)[C@H](Cc1c[nH]c2ccccc12)NC(=O)[C@H](CCCN=C(N)N)NC(=O)[C@@H](N)Cc1c[nH]c2ccccc12", "MIC": "≥ 45.5 µM"}
{"entry-smiles": "CC[C@H](C)[C@H](NC(=O)[C@H](CCCCN)NC(=O)[C@H](CC(C)C)NC(=O)[C@H](CC(C)C)NC(=O)[C@@H](N)CCCCN)C(=O)N[C@@H](Cc1c[nH]c2ccccc12)C(=O)N[C@@H](Cc1c[nH]c2ccccc12)C(=O)N[C@H](C(=O)N[C@@H](CCCCN)C(=O)N[C@H](C(=O)N[C@@H](CC(C)C)C(=O)N[C@@H](CCCCN)C(N)=O)C(C)C)[C@@H](C)CC", "MIC": "7.97 µM"}

----------
system: Bacillus subtilis
Recorded MIC for the following molecules

{"entry-smiles": "CC(C)C[C@H](NC(=O)CNC(=O)[C@H](CCCCN)NC(=O)[C@@H](N)CCCN=C(N)N)C(=O)N[C@@H](CCC(N)=O)C(=O)N[C@@H](CCCCN)C(=O)N[C@@H](CC(C)C)C(=O)N[C@H](C(=O)NCC(=O)N[C@@H](CCCN=C(N)N)C(=O)N[C@H](C(=O)N[C@@H](Cc1cnc[nH]1)C(=O)N[C@@H](CCCN=C(N)N)C(=O)N[C@@H](CC(C)C)C(=O)N[C@@H](CC(C)C)C(=O)N[C@@H](CCCN=C(N)N)C(=O)N[C@@H](CCCCN)C(=O)O)C(C)C)C(C)C", "target-or-system": "Bacillus subtilis", "cmp": "=", "MIC, µM": 7.78}
{"entry-smiles": "CC[C@H](C)[C@H](NC(=O)[C@H](CCCN=C(N)N)NC(=O)[C@@H](NC(=O)[C@@H](NC(=O)[C@@H](NC(=O)CN)C(C)C)C(C)C)C(C)C)C(=O)NCC(=O)N[C@@H](CCCN=C(N)N)C(=O)N[C@H](C(=O)N[C@H](C(=O)N[C@H](C(=O)N[C@@H](CCCN=C(N)N)C(=O)NCC(=O)N[C@H](C(=O)N[C@@H](CCCN=C(N)N)C(=O)N[C@@H](CCCN=C(N)N)C(N)=O)C(C)C)C(C)C)C(C)C)C(C)C", "target-or-system": "Bacillus subtilis", "cmp": "=", "MIC, µM": 8}
{"entry-smiles": "CC(C)C[C@H](NC(=O)[C@H](CCCN=C(N)N)NC(=O)[C@@H]1CCCN1C(=O)[C@H](Cc1cnc[nH]1)NC(=O)[C@@H]1CCCN1C(=O)[C@@H]1CCCN1C(=O)[C@H](CCCN=C(N)N)NC(=O)[C@@H]1CCCN1C(=O)[C@@H]1CCCN1C(=O)[C@H](Cc1cnc[nH]1)NC(=O)[C@@H]1CCCN1C(=O)[C@@H]1CCCN1C(=O)[C@H](CCCN=C(N)N)NC(=O)[C@@H]1CCCN1)C(=O)O", "target-or-system": "Bacillus subtilis", "cmp": "≥", "MIC, µM": 64}

----------
test system: Staphylococcus aureus ATCC 43300

{"entry-smiles": "CC[C@H](C)[C@H](NC(=O)[C@H](CO)NC(=O)[C@H](C)NC(=O)[C@@H](NC(=O)CNC(=O)[C@H](CO)NC(=O)[C@@H](NC(=O)[C@@H](NC(=O)[C@H](Cc1cnc[nH]1)NC(=O)[C@@H]1CCCN1C(=O)[C@@H](NC(=O)[C@H](CC(C)C)NC(=O)[C@H](CO)NC(=O)[C@H](CC(C)C)NC(=O)[C@@H](N)Cc1ccccc1)[C@@H](C)CC)[C@@H](C)CC)C(C)C)C(C)C)C(=O)N[C@@H](C)C(=O)N[C@@H](CCCCN)C(=O)N[C@@H](Cc1cnc[nH]1)C(=O)N[C@@H](Cc1ccccc1)C(N)=O", "target-or-system": "Staphylococcus aureus ATCC 43300", "u": "µM", "MIC": 6.25}

----------
tested on: Staphylococcus aureus ATCC 25923
Recorded MIC for the following compounds

{"entry-smiles": "CC(C)C[C@H](NC(=O)CNC(=O)[C@H](C)NC(=O)[C@@H](NC(=O)[C@H](CCCN=C(N)N)NC(=O)[C@H](CCCN=C(N)N)NC(=O)[C@H](CC(C)C)NC(=O)[C@@H](N)CC(C)C)C(C)C)C(=O)N[C@@H](CC(C)C)C(=O)N[C@@H](CCCCN)C(=O)N[C@@H](CCC(N)=O)C(=O)N[C@@H](Cc1ccccc1)C(=O)N[C@@H](C)C(=O)N[C@@H](CCCCN)C(=O)O", "cmp": "=", "MIC [µM]": 9.92}
{"entry-smiles": "CC[C@H](C)[C@H](NC(=O)[C@H](CCCCN)NC(=O)[C@H](CC(C)C)NC(=O)[C@H](CC(C)C)NC(=O)[C@@H]1CCCN1C(=O)[C@H](CCCCN)NC(=O)[C@H](CC(C)C)NC(=O)[C@H](CC(C)C)NC(=O)CN)C(=O)N[C@@H](C)C(=O)N[C@@H](C)C(=O)N[C@@H](CCCCN)C(=O)N[C@H](C(=O)NCC(=O)N[C@@H](CO)C(=O)N[C@@H](CC(N)=O)C(=O)N[C@@H](CC(C)C)C(=O)N[C@@H](CC(C)C)C(N)=O)C(C)C", "cmp": "=", "MIC [µM]": 6}
{"entry-smiles": "C[C@H](NC(=O)[C@H](C)NC(=O)[C@H](Cc1c[nH]c2ccccc12)NC(=O)[C@H](Cc1c[nH]c2ccccc12)NC(=O)[C@H](Cc1c[nH]c2ccccc12)NC(=O)[C@H](CCCN=C(N)N)NC(=O)[C@@H]1CSSC[C@H](N)C(=O)N[C@@H](C)C(=O)N[C@@H](CO)C(=O)N[C@@H](Cc2ccc(O)cc2)C(=O)N[C@@H](Cc2ccccc2)C(=O)N1)C(N)=O", "cmp": ">", "MIC [µM]": 64}

Measured values drawn from DBAASP for this set.
